Data origin: paper PMC9482650

biological target: PDLIM1, O00151; test: holdup assay; design: key: below the threshold = too weak to quantify, mostly under pKd 3.1 to 4; conditions: plain residues with an end cap or a label only (N-terminal biotin on a linker: ado-ado)
Sequence (O00151 1-87): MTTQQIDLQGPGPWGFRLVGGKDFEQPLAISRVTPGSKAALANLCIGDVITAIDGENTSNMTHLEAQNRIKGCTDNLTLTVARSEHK
VALUE TYPE: pKd

Here's what some known entries look like.
[
  {
    "BINDER": "GVHSNDHSVV [LPAR1, Q92633]",
    "pKd": "below the threshold"
  },
  {
    "BINDER": "FLVTEFNVML [DFNB31, Q9P202]",
    "pKd": 3.75
  },
  {
    "BINDER": "PALKNGQYWV [CSPG4, Q6UVK1]",
    "pKd": "below the threshold"
  },
  {
    "BINDER": "KSRPENGTVC [TMEM178B, H3BS89]",
    "pKd": "below the threshold"
  },
  {
    "BINDER": "NKSEPFLTWL [WWTR1, Q9GZV5]",
    "pKd": 4.13
  },
  {
    "BINDER": "IKLETKKTKL [SLC15A2, Q16348]",
    "pKd": "below the threshold"
  },
  {
    "BINDER": "DYSNLRETDI [ADRA1D, P25100]",
    "pKd": "below the threshold"
  },
  {
    "BINDER": "SKQFDKNAYV [CLDN10, P78369]",
    "pKd": "below the threshold"
  }
]

Okay, next one:
Query: GET /values?readout=pKd&item= IQISELETNV [SLC1A7, O00341]
Response: below the threshold
